System: VSVΔG-SM (MERS-CoV S glycoprotein)
Type: cell-based
measurement_context: 0.3125–40 μM
measured_parameter: IC50 against VSVΔG-SM

>>> result("COc1ccc2cc3c(N)nn(C(=O)Cc4c[nH]c5ccccc45)c3nc2c1")
"not selective"
>>> result("Nc1nc(Nc2ccccc2)sc1C(=O)c1ccccc1Cl")
"not selective"
